System: ERK3
Construct: gene MAPK6
run_conditions: concentration: 1 μM, replicates: in singlicate; n = 1;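 further: KINOMEscan kinase panel screen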
Field: %Inh. Provide a value for each of the compounds that follow.
Lab book: enter the figure in %, no units written.

Ask: # query: %Inh of entry COc1ccc(-c2coc3ccc(-c4nnc(SCc5ccc(OC)c(C(F)(F)F)c5)o4)cc23)cc1
Result: 0

Ask: # query: %Inh of entry O=C(Nc1cccc(Oc2ccc3nc(NC(=O)C4CC4)cn3n2)c1)c1ccccc1C(F)(F)F
Result: 0

Ask: # query: %Inh of entry COC(=O)Nc1nc2cc(Oc3ccc(NC(=O)Nc4cc(C(F)(F)F)ccc4F)cn3)ccc2[nH]1.Cl.Cl [GW681170]
Result: 0

Ask: # query: %Inh of entry CCn1c(-c2nonc2N)nc2c(C#CC(C)(C)O)ncc(OCCCCN)c21.O=C(O)C(F)(F)F.O=C(O)C(F)(F)F [GSK507274]
Result: 6

Ask: # query: %Inh of entry Cc1ccc(C(=O)Nc2ccc(Nc3ccnc4cc(-c5nccs5)ccc34)cc2O)cc1.Cl [GW494702]
Result: 0

Ask: # query: %Inh of entry Cl.c1ccc(-c2ccc3c(Nc4ccc5[nH]ncc5c4)ccnc3c2)nc1 [GW440137]
Result: 4

Ask: # query: %Inh of entry Cc1ccc(C(=O)N2CC[C@@H](O)C2)cc1-n1c(C)cc(OCc2ccc(F)cc2F)c(Br)c1=O
Result: 0

Ask: # query: %Inh of entry Fc1ccc(-c2ncn(C3CCNCC3)c2-c2ccnc(Oc3ccc(-c4ccccc4)cc3)n2)cc1 [SB-245391]
Result: 0

Ask: # query: %Inh of entry COC(=O)Nc1nc2ccc(Oc3ccc(NC(=O)Nc4cc(C(F)(F)F)ccc4F)cc3)cc2n1C.Cl [GW692089]
Result: 0

Ask: # query: %Inh of entry COc1cccc(C(=O)Nc2cccc(Oc3ccc4nc(NC(=O)C5CC5)cn4n3)c2)c1
Result: 0

Ask: # query: %Inh of entry Cl.c1ccc(-c2ccc3c(Nc4ccc5[nH]ccc5c4)ccnc3c2)nc1 [GW440138]
Result: 0

Ask: # query: %Inh of entry Cc1cccc(Nc2nc(N[C@H]3CCNC3)ncc2C(N)=O)c1.Cl [GSK2197149]
Result: 65

Ask: # query: %Inh of entry O=C(Nc1cccc(-c2nn3ccccc3c2-c2ccnc(Nc3cccc(C(F)(F)F)c3)n2)c1)c1c(F)cccc1F [GSK292658]
Result: 0

Ask: # query: %Inh of entry Cc1ccc(S(=O)(=O)Nc2ccc(Nc3nccc(Nc4cccc5[nH]ncc45)n3)cc2)cc1 [GSK581271]
Result: 0

Ask: # query: %Inh of entry Cl.Cl.NCC(NC(=O)c1cc(-c2ccccc2)c(-c2ccnc3[nH]ccc23)s1)c1ccccc1 (stereo not shown) [GSK1321561]
Result: 0

Ask: # query: %Inh of entry O=C(Nc1cccc(-c2nn3ncccc3c2-c2ccnc(Nc3ccccc3)n2)c1)c1c(F)cccc1F [GSK198271]
Result: 0

====

Tested on: BLK
run_conditions: concentration: 1 μM, replicates: in singlicate; n = 1
Please mark met if the recorded %Inh is equal to or greater than 30%, and not met if it falls below.

Ask: Determine whether this compound has %Inh no lower than 30%: Cl.Cl.NCC(NC(=O)c1cc(-c2ccccc2)c(-c2ccnc3[nH]ccc23)s1)c1ccccc1 (stereo not shown)
Result: met

Ask: Determine whether this compound has %Inh no lower than 30%: Cc1ccc(C)c(NC(=O)NC2CCN(c3ccnc(Nc4ccc(F)cc4)n3)C2)c1 (stereo not shown)
Result: not met

Ask: Determine whether this compound has %Inh no lower than 30%: Cc1ccc(C(=O)N2CC[C@@H](O)C2)cc1-n1c(C)cc(OCc2ccc(F)cc2F)c(Br)c1=O
Result: met

Ask: Determine whether this compound has %Inh no lower than 30%: FC(F)(F)c1ccc(/C=C/c2cncnc2Nc2ccc3[nH]c(Cc4ccccc4)nc3c2)cc1
Result: not met

Ask: Determine whether this compound has %Inh no lower than 30%: c1ccc(-c2n[nH]cc2Nc2ccnc3ccccc23)nc1
Result: not met

Ask: Determine whether this compound has %Inh no lower than 30%: COc1cccc(C2=C(Nc3ccc(Cl)c(C(=O)O)c3)C(=O)NC2=O)c1
Result: not met

Ask: Determine whether this compound has %Inh no lower than 30%: COc1cc(Nc2nccc(N3CCC(NC(=O)c4cc5ccccc5s4)C3)n2)cc(OC)c1OC (stereo not shown)
Result: met

Ask: Determine whether this compound has %Inh no lower than 30%: COc1ccc(Nc2nccc(N3CCC(NC(=O)Nc4cccc(OC)c4)C3)n2)cc1 (stereo not shown)
Result: met

Ask: Determine whether this compound has %Inh no lower than 30%: COc1cc(Nc2nccc(-c3c(-c4cccc(NC(=O)c5c(F)cccc5F)c4)nn4ccccc34)n2)cc(OC)c1OC
Result: met

Ask: Determine whether this compound has %Inh no lower than 30%: NCCCC(NC(=O)c1cc(Br)c(-c2ccnc3[nH]ccc23)s1)c1ccccc1.O=C(O)C(F)(F)F.O=C(O)C(F)(F)F (stereo not shown)
Result: not met

Ask: Determine whether this compound has %Inh no lower than 30%: c1ccc(Oc2ccc(Nc3ccnc4cc(-c5ccc(CNCCN6CCOCC6)o5)ccc34)cc2)nc1
Result: met

Ask: Determine whether this compound has %Inh no lower than 30%: COc1ccc(CNC(=O)NC2CCN(c3ccnc(Nc4ccc(F)cc4)n3)CC2)cc1
Result: not met

Ask: Determine whether this compound has %Inh no lower than 30%: CN(C)S(=O)(=O)c1cc(-c2ccc3nccc(-c4cccc(S(N)(=O)=O)c4)c3c2)cnc1N
Result: not met

Ask: Determine whether this compound has %Inh no lower than 30%: CSc1cccc2c(-c3ccncn3)c(-c3ccc(F)cc3)nn12
Result: not met

Ask: Determine whether this compound has %Inh no lower than 30%: Cc1cccc(Nc2nc(N[C@H]3CCNC3)ncc2C(N)=O)c1.Cl
Result: met

Ask: Determine whether this compound has %Inh no lower than 30%: COC(=O)Nc1nc2ccc(Oc3ccc(NC(=O)Nc4cc(C(F)(F)F)ccc4F)cc3)cc2n1C.Cl
Result: not met

Where do the numbers come from? From paper PMC5540273.
